- System under test: full-length B-Catenin (Uniprot ID P35222) (Homo sapiens, UniProt P35222)
- Construct: 65 nM full-length B-Catenin (Uniprot ID P35222)
- Method summary: Alphascreen binding assay (beta-catenin / biotin-TCF4 10-53)
Entries and their pEC50
pEC50 here: minus log base 10 of the concentration, concentration in moles per litre.

[[record]]
compound = "CC(=O)N1CCC[C@]12CC=CCCCC1(CCCC=CCCCCCC[C@@](C)(C(=O)N[C@@H](Cc3ccccc3)C(=O)N[C@@H](Cc3csc4ccccc34)C(=O)N[C@@H](CCC(N)=O)C(N)=O)NC(=O)[C@H](CCC(N)=O)NC(=O)[C@H](Cc3ccccc3)NC(=O)[C@H](C)NC(=O)[C@H](C)NC(=O)[C@H](CC(=O)O)NC(=O)[C@H](CC(=O)O)NC1=O)NC(=O)[C@H](C)NC(=O)[C@H](CC(=O)O)NC2=O (some centres unmarked) [I-294]"
test_readout = "pEC50"
recorded_measurement = 7.40


Next compound, please.
Need pEC50 of CC(=O)N1CCC[C@]12CC=CCCCC1(CCCC=CCCCCCC[C@@](C)(C(=O)N[C@@H](Cc3ccccc3)C(=O)N[C@@H](Cc3c[nH]c4ccc(C(F)(F)F)cc34)C(=O)N[C@@H](CCC(N)=O)C(N)=O)NC(=O)[C@H](C(C)C)NC(=O)[C@H](Cc3ccccc3)NC(=O)[C@H](C)NC(=O)[C@H](C)NC(=O)[C@H](CCC(=O)O)NC(=O)[C@H](CC(=O)O)NC1=O)NC(=O)[C@H](C)NC(=O)[C@H](CC(=O)O)NC2=O (some centres unmarked) [I-169] , thanks.
5.04

====

Entries and their pIC50
- System under test: full-length beta-Catenin (Uniprot ID P35222) (Homo sapiens, UniProt P35222)
- Construct: 10 nM full-length beta-Catenin (Uniprot ID P35222)
- Method summary: Fluorescence polarization IC50 (beta-catenin / 5FAM-TCF4 10-53 competition)
- Format: binding
- Condition summary: fluorescence polarization; read-out: beta-Catenin FP IC50
pIC50 here: minus log base 10 of the concentration, concentration in moles per litre.

Field: example entries. Status: answers known.
[[record]]
compound = "CC(=O)N1CCC[C@]12CC=CCCCC1(CCCC=CCCCOC(=O)N3CC[C@@](C(=O)N[C@@H](Cc4ccsc4)C(=O)N[C@@H](Cc4csc5ccccc45)C(=O)N[C@@H](CCC(N)=O)C(N)=O)(C3)NC(=O)[C@H](CCO)NC(=O)[C@H](Cc3cccc(C(=O)O)c3)NC(=O)[C@H](C)NC(=O)[C@H](C)NC(=O)[C@H](CCc3ccc(O)cc3)NC(=O)[C@H](CC(=O)O)NC1=O)NC(=O)[C@H](CC(C)(C)C)NC(=O)[C@H](CC(=O)O)NC2=O (some centres unmarked) [I-2117]"
recorded_measurement = 7.72

[[record]]
compound = "CC(=O)N1CCC[C@]12CC=CCCCC1(CCCC=CCCCCCC[C@@](C)(C(=O)N[C@@H](Cc3ccsc3)C(=O)N[C@@H](Cc3csc4ccccc34)C(=O)N[C@@H](Cc3c[nH]cn3)C(N)=O)NC(=O)[C@H](CC(C)C)NC(=O)[C@H](Cc3ccccc3)NC(=O)[C@H](C)NC(=O)[C@H](C)NC(=O)[C@H](CC(=O)O)NC(=O)[C@H](CC(=O)O)NC1=O)NC(=O)[C@H](CC(C)(C)C)NC(=O)[C@H](CC(=O)O)NC2=O (some centres unmarked)"
recorded_measurement = 7.53

[[record]]
compound = "CCNC(=O)[C@H](CO)NC(=O)[C@H](Cc1csc2ccccc12)NC(=O)[C@H](Cc1ccccc1Cl)NC(=O)[C@]12CCN(C1)C(=O)OCCCC=CCCCC1(CCCC=CC[C@]3(CCCN3C(C)=O)C(=O)N[C@@H](CC(=O)O)C(=O)N[C@@H](CC(C)(C)C)C(=O)N1)C(=O)N[C@@H](CC(=O)O)C(=O)N[C@@H](CC(=O)O)C(=O)N[C@@H](C)C(=O)N[C@@H](C)C(=O)N[C@@H](Cc1ccccc1)C(=O)N[C@@H]([C@@H](C)O)C(=O)N2 (some centres unmarked)"
recorded_measurement = 7.74

[[record]]
compound = "CC[C@H](C)[C@@H]1NC(=O)[C@H](CC(=O)O)NC(=O)[C@]2(CC=CCCCC3(CCCC=CCCCCCC[C@@](C)(C(=O)N[C@@H](Cc4ccccc4)C(=O)N[C@@H](Cc4csc5ccccc45)C(=O)N[C@@H](CCC(N)=O)C(N)=O)NC(=O)[C@H](CCC(N)=O)NC(=O)[C@H](Cc4ccccc4)NC(=O)[C@H](C)NC(=O)[C@H](CCC(N)=O)NC(=O)[C@H](CCC(=O)O)NC(=O)[C@H](CC(=O)O)NC3=O)NC1=O)CCCN2C(C)=O (some centres unmarked) [I-653]"
recorded_measurement = 6.97


Next compound, please.
Need pIC50 of CC(=O)N1CCC[C@]12CC=CCCCC1(CCCC=CCCCOC(=O)N3CC[C@@](C(=O)N[C@@H](Cc4ccsc4)C(=O)N[C@@H](Cc4csc5ccccc45)C(=O)N[C@@H](CCC(N)=O)C(N)=O)(C3)NC(=O)[C@H](CC(N)=O)NC(=O)[C@H](Cc3ccccc3)NC(=O)[C@H](C)NC(=O)[C@H](C)NC(=O)[C@H]([C@@H](C)O)NC(=O)[C@H](CC(N)=O)NC1=O)NC(=O)[C@H](CC(C)(C)C)NC(=O)[C@H](CC(=O)O)NC2=O (some centres unmarked) [I-1564] , thanks.
6.91

====

- System under test: full-length beta-Catenin (Uniprot ID P35222) (Homo sapiens)
- Construct: 10 nM full-length beta-Catenin (Uniprot ID P35222)
- Sequence (P35222 1-781): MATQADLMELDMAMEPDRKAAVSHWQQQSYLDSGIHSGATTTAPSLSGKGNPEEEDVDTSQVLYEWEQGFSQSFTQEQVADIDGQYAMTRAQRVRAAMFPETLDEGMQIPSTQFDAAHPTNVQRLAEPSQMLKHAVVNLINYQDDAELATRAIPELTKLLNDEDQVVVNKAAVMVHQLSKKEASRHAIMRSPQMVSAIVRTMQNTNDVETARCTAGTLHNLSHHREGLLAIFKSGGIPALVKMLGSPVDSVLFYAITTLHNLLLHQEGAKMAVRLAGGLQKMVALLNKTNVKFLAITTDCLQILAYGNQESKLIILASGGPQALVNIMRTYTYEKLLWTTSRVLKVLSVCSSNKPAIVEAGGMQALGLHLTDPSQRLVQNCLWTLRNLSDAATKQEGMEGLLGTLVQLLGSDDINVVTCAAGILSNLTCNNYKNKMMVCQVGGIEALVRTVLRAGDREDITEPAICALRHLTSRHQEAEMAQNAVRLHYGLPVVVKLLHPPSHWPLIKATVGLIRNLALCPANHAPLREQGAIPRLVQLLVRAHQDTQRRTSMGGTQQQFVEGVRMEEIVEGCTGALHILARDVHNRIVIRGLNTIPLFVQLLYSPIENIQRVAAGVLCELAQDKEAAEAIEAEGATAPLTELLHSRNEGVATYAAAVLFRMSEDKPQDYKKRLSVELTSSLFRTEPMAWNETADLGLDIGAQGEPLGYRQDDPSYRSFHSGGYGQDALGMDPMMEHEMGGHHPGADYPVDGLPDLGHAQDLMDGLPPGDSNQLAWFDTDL
- Method summary: Fluorescence polarization IC50 (beta-catenin / 5FAM-TCF4 10-53 competition)
- Type: binding
- Condition summary: fluorescence polarization; read-out: beta-Catenin FP IC50
Test readout: pIC50
pIC50 here: minus log base 10 of the concentration, concentration in moles per litre.

Field: example entries. Status: answers known.
[[record]]
molecule = "CCCC[C@@H]1NC(=O)[C@H](Cc2ccccc2)NC(=O)[C@H](C)NC(=O)C(C)(C)NC(=O)[C@H](Cc2cccc(C(=O)O)c2)NC(=O)[C@H](CC(=O)O)NC(=O)C2(CCCC=CCCCOC(=O)N3CC[C@@](C(=O)N[C@@H](Cc4ccsc4)C(=O)N[C@@H](Cc4csc5ccccc45)C(=O)N[C@@H](CCC(=O)N(CCOC)CCOC)C(N)=O)(C3)NC1=O)CCCC=CC[C@]1(CCCN1C(C)=O)C(=O)N[C@@H](CC(=O)O)C(=O)N[C@@H](CC(C)(C)C)C(=O)N2 (some centres unmarked)"
recorded_measurement = 8.10

[[record]]
molecule = "CC[C@H](C)[C@@H]1NC(=O)[C@H](CC(=O)O)NC(=O)[C@]2(CC=CCCCC3(CCCC=CCCCCCC[C@@](C)(C(=O)N[C@@H](Cc4ccsc4)C(=O)N[C@@H](Cc4csc5ccccc45)C(N)=O)NC(=O)[C@H](CC(N)=O)NC(=O)[C@H](Cc4ccccc4)NC(=O)[C@H](C)NC(=O)[C@H](C)NC(=O)[C@H](CCC(=O)O)NC(=O)[C@H](CC(=O)O)NC3=O)NC1=O)CCCN2C(C)=O (some centres unmarked) [I-720]"
recorded_measurement = 7.12

[[record]]
molecule = "CC(=O)N1CCC[C@]12CC=CCCCC1(CCCC=CCCCOC(=O)N3CC[C@@](C(=O)N[C@@H](Cc4ccccc4)C(=O)N[C@@H](Cc4csc5ccccc45)C(=O)N[C@@H](CC(=O)N4CCOCC4)C(N)=O)(C3)NC(=O)[C@H](CC(C)C)NC(=O)[C@H](Cc3ccccc3)NC(=O)[C@H](C)NC(=O)[C@H](CCCCNC(C)C)NC(=O)[C@H](CCC(N)=O)NC(=O)[C@H](CC(=O)O)NC1=O)NC(=O)[C@H](CC1CCCCC1)NC(=O)[C@H](CC(N)=O)NC2=O (some centres unmarked)"
recorded_measurement = 7.34

[[record]]
molecule = "CC(=O)N1CCC[C@]12CC=CCCCC1(CCCC=CCCCOC(=O)N3CC[C@@](C(=O)N[C@@H](Cc4ccsc4)C(=O)N[C@@H](Cc4csc5ccccc45)C(=O)N[C@@H](CCC(N)=O)C(N)=O)(C3)NC(=O)[C@H](CC(N)=O)NC(=O)[C@H](Cc3ccccc3)NC(=O)[C@H](C)NC(=O)[C@H](C)NC(=O)[C@H](CC(=O)O)NC(=O)[C@H](CC(=O)O)NC1=O)NC(=O)[C@H](CC(C)(C)C)NC(=O)[C@H](CCC(N)=O)NC2=O (some centres unmarked)"
recorded_measurement = 6.41


Next molecule, please.
Need pIC50 of CC(=O)N1CCC[C@]12CC=CCCCC1(CCCC=CCCCOC(=O)N3CC[C@@](C(=O)N[C@@H](Cc4ccsc4)C(=O)N[C@@H](Cc4csc5ccccc45)C(=O)N[C@@H](CCC(N)=O)C(N)=O)(C3)NC(=O)[C@H](CC(N)=O)NC(=O)[C@H](Cc3ccccc3)NC(=O)[C@H](C)NC(=O)[C@H](C)NC(=O)[C@H](CC(=O)O)NC(=O)[C@H](CCO)NC1=O)NC(=O)[C@H](CC(C)(C)C)NC(=O)[C@H](CC(=O)O)NC2=O (some centres unmarked) , thanks.
6.94
